- Tested system: thrombin (Homo sapiens, UniProt P00734)
- Construct: consists of two polypeptide chains of 36 (light chain) and 259 amino acid
- Measurement protocol: Thrombin inhibition screen of crude macrocycle reactions (residual thrombin activity, fluorogenic substrate Z-Gly-Gly-Arg-AMC)
- Format: biochemical
- Conditions: 10 µM macrocycle concentration; macrocycles containing acid 14; crude reaction; original screen
Numbered stars: 1 amine (or outer) side, 2 acyl side, 3 side chain; on linkers, the order of the positions; unused ones are H or OH. Bridge positions count the residues as written; N and C are the ends. Square brackets hold non-standard residues; d marks the D form. Peptide text beside a SMILES is read from it. * marks the point of attachment. 2Thenoyl(5-Cl) = O=C(c1ccc(Cl)s1)*; Cysteamide = C(CS[*:3])N[*:1]; Orn = NCCC[CH](N)C(=O)O; Dap = NC[C@H](N)C(=O)O; Mpa = O=C(O)CCS
Readout name: % thrombin activity, Original screen (%)

CC(C)[C@@H]1NC(=O)[C@H](CNC(=O)c2ccc(Cl)s2)NC(=O)[C@H]2CCCN(C2)C(=O)CCSSCCNC1=O	62.4
O=C1CCSSCCNC(=O)[C@H](Cc2c[nH]cn2)NC(=O)C2(CC2)CNC(=O)C2(CCN(C(=O)c3ccc(Cl)s3)CC2)N1	96.8
O=C1CCSSCCNC(=O)[C@H](CNC(=O)c2ccc(Cl)s2)NC(=O)[C@H](Cc2ccc(O)cc2)NC(=O)C2(CC2)CN1	68.6
O=C1CCNC(=O)[C@@H](Cc2ccc(O)cc2)NC(=O)[C@H](CNC(=O)c2ccc(Cl)s2)NC(=O)CCSSCCN1	78.6
O=C1CCSSCCNC(=O)C2CCCN2C(=O)C(CCCNC(=O)c2ccc(Cl)s2)NC(=O)C(Cc2c[nH]cn2)N1 (centres unmarked) [X H D2 B1] ([Mpa]H[Orn](2Thenoyl(5-Cl))P-Cysteamide; disulfide 1-C; configuration not given here)	95.8
O=C1CCSSCCNC(=O)C(CO)NC(=O)c2ccc(cc2)CNC(=O)C(CCCCNC(=O)c2ccc(Cl)s2)N1 (centres unmarked) [X D1 B3 S]	99.2
CC[C@H](C)[C@@H]1NC(=O)[C@H](CCCNC(=O)c2ccc(Cl)s2)NC(=O)c2cccc(c2)CNC(=O)CCSSCCNC1=O [X B5 D2 I]	86.0
O=C1CCNC(=O)C2(CCN(C(=O)c3ccc(Cl)s3)CC2)NC(=O)[C@@H](Cc2ccccc2)NC(=O)CCSSCCN1	97.4
O=C1CCSSCCNC(=O)C2(CC2)CNC(=O)[C@H](Cc2c[nH]cn2)NC(=O)[C@H](CCCCNC(=O)c2ccc(Cl)s2)N1 [X D1 H B6]	105.8
C[C@H]1NC(=O)[C@@H]2CCCN2C(=O)[C@H](CCCCNC(=O)c2ccc(Cl)s2)NC(=O)CCSSCCNC1=O [X D1 B1 a] ([Mpa]K(2Thenoyl(5-Cl))P[dA]-Cysteamide; disulfide 1-C)	96.4
CC(C)CC1NC(=O)C2CC(NC(=O)c3ccc(Cl)s3)CN2C(=O)CCSSCCNC(=O)C2CCCN(C2)C1=O (centres unmarked)	94.2
O=C1CCSSCCNC(=O)[C@H](CO)NC(=O)[C@H](CNC(=O)c2ccc(Cl)s2)NC(=O)CCN1	83.8
NC(=O)CC[C@@H]1NC(=O)CCSSCCNC(=O)C2(CCN(C(=O)c3ccc(Cl)s3)CC2)NC(=O)c2ccc(cc2)CNC1=O	87.5
O=C(NC[C@@H]1NC(=O)[C@@H]2CCCN2C(=O)CCSSCCNC(=O)[C@@H](Cc2ccccc2)NC1=O)c1ccc(Cl)s1 [X B1 D3 f] ([Mpa]P[Dap](2Thenoyl(5-Cl))[dF]-Cysteamide; disulfide 1-C)	86.2

The measurements presented in this section are drawn from paper PMC9250534.
